# TARGET_OR_SYSTEM: ATP hydrolytic activity of sub-mitochondrial particles (SMPs), mitochondrial F1Fo-ATPase (Bos taurus)
# Construct: from tissue; host or cells: sub-mitochondrial particles (SMPs)
# METHOD: NADH-coupled kinetics assay of ATP hydrolysis by sub-mitochondrial particles
# Format: biochemical, bovine
# CONDITION_SET: non-competitive (mixed) model; binding when all three sites have substrate bound; read-out: Ki*
QUANTITY_KIND: Ki (µM)
Please reply with the bare figure in µM and do not write the unit itself.

Reported Ki ( CN1C(=O)C(Cc2ccc3ccccc3c2)N=C(c2ccc(O)cc2)c2cc(Cl)ccc21 (stereo not shown) [Bz-423] ) = 18.9

Values compiled from patent US20080293700A1.
